- System: MCF7 breast
- method: NCI tumour cell line growth inhibition, 48 h; in the data active means GI50 below about 0.43 µM; inactive means the rest
Possible outcomes: active, inactive

>  <compound>
COc1cccc(C2CC(=O)Nc3cc4c(cc32)CCC4)c1OC (stereo unspecified)

>  <label_value>
inactive

$$$$
>  <compound>
CCCC(=O)Nc1cn(COC)c(C(=O)N2C[C@H]3C[C@@]34C2=CC(=O)c2[nH]cc(C)c24)n1

>  <label_value>
inactive

$$$$
>  <compound>
COc1ccc2c(c1)c(-c1cc(-c3cn(C)c4ccc(OC)cc34)[nH]n1)cn2C

>  <label_value>
inactive

$$$$
>  <compound>
CNc1ccc(N=Nc2cccc3ncccc23)cc1

>  <label_value>
active

$$$$
>  <compound>
Cc1nc2cc(Nc3nc(Nc4ccc(F)cc4)nc(-c4ccc(Cl)cc4)n3)ccc2n1Cc1ccccc1

>  <label_value>
inactive

$$$$
>  <compound>
Cc1ccc(-c2cc(C(Cl)Cl)on2)cc1

>  <label_value>
inactive

$$$$
>  <compound>
COc1ccc(-c2nn3ncccc3c2-c2ccnc(Nc3cccc(C(F)(F)F)c3)n2)cc1

>  <label_value>
inactive

$$$$
>  <compound>
N#CC1=C(N)NC(=S)C(C#N)C12Nc1ccccc1S2 (stereo unspecified)

>  <label_value>
inactive

$$$$
>  <compound>
Fc1ccc(-c2cc(-c3cn[nH]c3-c3ccccn3)ccn2)cc1

>  <label_value>
inactive

$$$$
>  <compound>
Cc1cc(S(N)(=O)=O)c(S/C(=N\NS(=O)(=O)c2ccccc2)c2ccc(Cl)c(Cl)c2)cc1Cl

>  <label_value>
inactive

$$$$
>  <compound>
CCCCCCCCCCCCCCCCCCNC(=O)[C@H]1CSC(c2ccc(F)c(OC)c2)N1 (stereo partly specified)

>  <label_value>
active

$$$$

---

- System: LOX IMVI melanoma
- method: NCI tumour cell line growth inhibition, 48 h; in the data active = GI50 below about 0.43 µM; inactive = the rest
Outcomes: active, inactive

>  <compound>
COc1ccc(CNC(=O)c2ccc(-c3cc(-c4nnc(C)o4)ccc3C)cc2)cc1

>  <label_value>
inactive

$$$$
>  <compound>
CC(C)c1ccc2c(c1)c(SC(C)(C)C)c(CC(C)(C)C(=O)O)n2Cc1ccc(Cl)cc1

>  <label_value>
inactive

$$$$
>  <compound>
N#Cc1c(-c2ccc(Cl)cc2)csc1NC(=O)Nc1cccc(C(F)(F)F)c1

>  <label_value>
inactive

$$$$
>  <compound>
CCCCCCCCCCCCCCCCCCNC(=O)[C@H]1CSC(c2ccc(F)c(OC)c2)N1 (stereo partly specified)

>  <label_value>
inactive

$$$$
>  <compound>
CNc1ccc(N=Nc2cccc3ncccc23)cc1

>  <label_value>
inactive

$$$$
>  <compound>
NCCn1c2c(c3ccccc3c1=O)C(=O)c1ccccc1-2

>  <label_value>
active

$$$$
>  <compound>
COc1cc(/C=C2\C(=O)Nc3ccc(Br)cc32)cc(OC)c1OC

>  <label_value>
inactive

$$$$
>  <compound>
COc1ccc2c(c1)c(-c1cc(-c3cn(C)c4ccc(OC)cc34)[nH]n1)cn2C

>  <label_value>
inactive

$$$$
>  <compound>
CCOC(=O)/N=c1\ssc(Cl)c1Cl

>  <label_value>
inactive

$$$$
>  <compound>
Cc1cc2c(-c3nc4ccccn4c3NC34CC5CC(CC(C5)C3)C4)c(O)c(O)cc2c(O)c1-c1c(C)cc2c(-c3nc4ccccn4c3NC34CC5CC(CC(C5)C3)C4)c(O)c(O)cc2c1O

>  <label_value>
active

$$$$
>  <compound>
COc1ccc(-c2conc2-c2ccccc2)cc1

>  <label_value>
inactive

$$$$

---

- Test system: COLO 205 colon
- method: NCI tumour cell line growth inhibition, 48 h; in the data active = GI50 below about 0.43 µM; inactive = the rest
Possible outcomes: True (active), False (inactive)

>  <compound>
COc1ccc(-c2nc(/C=N/Nc3cc(C)nc4ccc(Br)cc34)c(C)o2)cc1

>  <label_value>
False

$$$$
>  <compound>
Cc1cc([C@H](C)Nc2nccc(N3C(=O)OC[C@@H]3[C@H](C)F)n2)ncc1-c1ccnc(C(F)(F)F)c1

>  <label_value>
False

$$$$
>  <compound>
Cc1cc(S(N)(=O)=O)c(S/C(=N\NS(=O)(=O)c2ccccc2)c2ccc(Cl)c(Cl)c2)cc1Cl

>  <label_value>
False

$$$$
>  <compound>
O=C(CCl)Nc1ccc(C(=O)N/N=C/c2ccc(Cl)cc2)cc1

>  <label_value>
False

$$$$
>  <compound>
NC(=O)c1c(NC(=O)c2cccc(C(F)(F)F)c2)sc2c1CCC(=O)C2

>  <label_value>
False

$$$$
>  <compound>
NCCNc1nc2ccccc2c2c(=O)c3cc(F)cc(Cl)c3sc12

>  <label_value>
False

$$$$
>  <compound>
C/C(=N\O)[C@H]1CC[C@@]2(C)[C@@H]3CC[C@H]4C(C)(C)/C(=N/O)CC[C@@]45CC35CC[C@]12C (stereo not given in full)

>  <label_value>
False

$$$$
>  <compound>
COc1ccc(C2NC(=S)NC3=C2COc2ccc(F)cc23)cc1OC (stereo not given)

>  <label_value>
False

$$$$
>  <compound>
CC(=O)OC1Oc2cc(C)c(C)cc2-c2oc(=O)c(-c3ccccc3)cc21 (stereo not given)

>  <label_value>
True

$$$$
>  <compound>
COc1ccc(CNC(=O)c2ccc(-c3cc(-c4nnc(C)o4)ccc3C)cc2)cc1

>  <label_value>
False

$$$$
>  <compound>
N#CC1=C(N)NC(=S)C(C#N)C12Nc1ccccc1S2 (stereo not given)

>  <label_value>
False

$$$$
>  <compound>
COc1ccc(-c2cn(-c3cc(OC)c(OC)c(OC)c3)c(=O)n2-c2ccccc2)cc1

>  <label_value>
False

$$$$
>  <compound>
CCOC(=O)C(=Cc1c(-c2ccccc2)[nH]c2ccccc12)C(=O)OCC

>  <label_value>
False

$$$$
>  <compound>
Cc1ccc(S(=O)c2ccc([N+](=O)[O-])c3nonc23)cc1 (stereo not given)

>  <label_value>
False

$$$$
>  <compound>
COc1ccccc1-c1nccc(COc2ccccc2C[C@@H](Oc2ncnc3sc(-c4ccc(F)cc4)c(-c4ccc(OCCN5CCN(C)CC5)c(Cl)c4C)c23)C(=O)O)n1

>  <label_value>
False

$$$$
>  <compound>
Cc1cc(C(=O)Nc2cc(Nc3ncccc3-c3ncnc4nc[nH]c34)ccc2F)cc(C(C)(C)C#N)c1

>  <label_value>
True

$$$$
>  <compound>
COc1ccc(-c2nn(-c3cccc(Cl)c3)cc2-c2cc(-c3cccs3)no2)cc1

>  <label_value>
False

$$$$
>  <compound>
Fc1ccc(-c2cc(-c3cn[nH]c3-c3ccccn3)ccn2)cc1

>  <label_value>
False

$$$$
>  <compound>
CC(C)(C)OC(=O)n1c(Cl)c(C(=O)N=C=S)c2ccccc21

>  <label_value>
False

$$$$
>  <compound>
CC(C)c1ccc2c(c1)c(SC(C)(C)C)c(CC(C)(C)C(=O)O)n2Cc1ccc(Cl)cc1

>  <label_value>
False

$$$$

---

Some compounds, each annotated with its measured TGI.
- Tested on: A549 NSCLC
- method: NCI tumour cell line growth inhibition, 48 h
measured_endpoint: TGI

>  <compound>
CCCCOP1(=O)C=CC(Cl)=C(C)C1 (stereo not drawn)

>  <reported>
> 100 µM

$$$$
>  <compound>
OC(CCN1CCN(CCOC(c2ccc(F)cc2)c2ccc(F)cc2)CC1)c1ccc(Br)cc1 (stereo not drawn)

>  <reported>
24.1 µM

$$$$
>  <compound>
Cc1ccc(NCCNCC(O)CO)c2c(=O)c3ccccc3sc12 (stereo not drawn)

>  <reported>
2.38 µM

$$$$
>  <compound>
CC(C)(C)C#CI1OC(=O)c2ccccc21

>  <reported>
31.9 µM

$$$$
>  <compound>
NC1(C(=O)O)CSSC1

>  <reported>
> 100 µM

$$$$
>  <compound>
CN(C)CN1C(=O)/C(=N\n2c(-c3ccncc3)n[nH]c2=S)c2ccccc21

>  <reported>
> 100 µM

$$$$
>  <compound>
COC12C=C/C(=C(/C(=O)OCc3csc(SC)n3)C(=O)CCCCCCCCC3(OC)C=C/C(=C(/C(=O)OCc4cnc(SC)s4)C(=O)CCCCCCCC1)O3)O2 (stereo not drawn)

>  <reported>
> 100 µM

$$$$
>  <compound>
CCC1(Cl)C(=O)NC(=O)N(C2CC(O)C(CO)O2)C1N=[N+]=[N-] (stereo not drawn)

>  <reported>
> 100 µM

$$$$
>  <compound>
CC(=O)Oc1ccc2c(c1)O/C(=C\c1ccc(O)cc1)C2=O

>  <reported>
> 100 µM

$$$$
>  <compound>
CC(C)(C)[Si](C)(C)OC1CCOC1(O)c1ccccn1 (stereo not drawn)

>  <reported>
> 100 µM

$$$$
>  <compound>
O=C1CN(c2ccccc2)C(=O)C1C(=O)Nc1ccc(Cl)c(Cl)c1 (stereo not drawn)

>  <reported>
15.7 µM

$$$$
>  <compound>
N#Cc1c(-c2ccc(Cl)cc2)csc1NC(=O)Nc1cccc(C(F)(F)F)c1

>  <reported>
11.4 µM

$$$$
>  <compound>
O/N=C/[C@H]1COC2(CCCCC2)O1

>  <reported>
> 100 µM

$$$$
>  <compound>
Brc1ccc2[nH]cc(-c3csc(-c4c[nH]c5ccc(Br)cc45)n3)c2c1

>  <reported>
7 µM

$$$$
>  <compound>
C=C1C[C@@H]2CC[C@@]34CC5O[C@H]6C(O[C@H]7CC[C@H](CC(=O)O[C@@H]8[C@@H](C)[C@@H]9O[C@@H]%10C[C@]%11(C[C@@H]%12O[C@]%13(C[C@H](C)[C@@H]%14O[C@@H]%15CC(C(COC(C)=O)OC(C)=O)O[C@@H]%15C[C@@H]%14O%13)C[C@H](C)[C@@H]%12O%11)O[C@@H]%10C[C@@H]9O[C@H]8CC8O[C@@H](CC[C@@H]1O2)C[C@@H](C)C8(O)CO)O[C@@H]7[C@@H]6O3)[C@H]5O4 (stereo partly drawn)

>  <reported>
> 1 µM

$$$$
>  <compound>
O=C1OC(c2ccc(Cl)c3ccccc23)c2ccccc21 (stereo not drawn)

>  <reported>
> 100 µM

$$$$
>  <compound>
CC(C)(C)OC(=O)n1c(Cl)c(C(=O)N=C=S)c2ccccc21

>  <reported>
> 100 µM

$$$$
>  <compound>
Nc1ccc2c(SCC(=O)Nc3ccccc3-c3ccccc3NC(=O)CSc3c4ccccc4nc4cc(N)ccc34)c3ccccc3nc2c1

>  <reported>
> 100 µM

$$$$
